Here the recorded IFN-α is given for each entry.
Test system: human PBMCs
Assay: Human PBMC cytokine response assay (IFN-γ and IFN-α in cell-free medium by ELISA), with or without cPLGA
Type: cell-based
Conditions: Table 24; donor 28237

substance: (5′-TCGTCGA-3′-C3)2-glycerol-C3-5′-TCGTCGA-3′ [Compound C-104]
IFN-α, pg/mL: 16

substance: (5′-TCGTCGA-3′-HEG)2-glycerol-HEG-5′-TCGTCGA-3′ [Compound C-94]
IFN-α, pg/mL: 3631

substance: 5′-TCGACGT-3′-HEG-5′-TCGACGT-3′-HEG-5′-TCGACGT-3′ [Compound C-51]
IFN-α, pg/mL: 3798

substance: (5′-TCGACGT-3′-HEG)2-glycerol-HEG-5′-TCGACGT-3′ [Compound C-101]
IFN-α, pg/mL: 8566

substance: (5′-TCGTCGA-3′-HEG)2-glycerol-HEG-5′-AACGTTC-3′ [Compound C-96]
IFN-α, pg/mL: 993

* * *

Tested on: human PBMCs
Experiment: Human PBMC cytokine response assay (IFN-γ and IFN-α in cell-free medium by ELISA), with or without cPLGA
Assay type: cell-based
Conditions: Example 59; 4 ug/ml; donor 272
Strand notation (5' to 3'): a small letter for the sugar, then the base; units joined by * are phosphorothioate-linked, units joined directly phosphodiester-linked; [ ] holds rarer units or linkages, { } end groups; capitals alone tell only the bases. d = 2'-deoxy (DNA)
Listed substances paired with reported IFN-α

substance: 5′-TGACTGTGAACCTTAGAGATGA-3′ (SEQ ID NO: 3) (dT*dG*dA*dC*dT*dG*dT*dG*dA*dA*dC*dC*dT*dT*dA*dG*dA*dG*dA*dT*dG*dA) [Compound P-7, negative control, reference compound]
unitsLabel: pg/mL
IFN-α: 102

substance: (5′-TCGACGT-3′-HEG)2-glycerol-HEG-5′-TCGACGT-3′ [Compound C-101]
unitsLabel: pg/mL
IFN-α: 604

substance: (5′-TCGACGT-HEG)2-glycerol-HEG-5′-ACTTAGAGGTTCAGTAGG-3′ (SEQ ID NO: 157) (DNA, all phosphorothioate, methylation of C not given here; Two heptamer DNA arms joined by HEG spacers and glycerol branching to the chain) [Compound C-202]
unitsLabel: pg/mL
IFN-α: 1222

substance: (5′-TCGACGT-HEG)2-glycerol-HEG-5′-CCTACTGAACCTCTAAGT-3′ (SEQ ID NO: 158) (DNA, all phosphorothioate, methylation of C not given here; Two heptamer DNA arms joined by HEG spacers and glycerol branching to the chain) [Compound C-203]
unitsLabel: pg/mL
IFN-α: 102

substance: (5′-TAGTCAT-3′-HEG)2-glycerol-HEG-5′-AACCTTC-3′ [Compound M-3, reference compound]
unitsLabel: pg/mL
IFN-α: 102

substance: (5′-TCGACGT-HEG)2-glycerol-HEG-5′-TTGGCCAAGCTTGGCCAA (SEQ ID NO: 116) (DNA, all phosphorothioate, methylation of C not given here; Two heptamer DNA arms joined by HEG spacers and glycerol branching to the chain) [Compound C-178]
unitsLabel: pg/mL
IFN-α: 1677

* * *

System: human PBMCs
Experiment: Human PBMC cytokine response assay (IFN-γ and IFN-α in cell-free medium by ELISA), with or without cPLGA
Format: cell-based
Conditions: Example 59; 4 ug/ml; mean of four donors
Strand notation (5' to 3'): a small letter for the sugar, then the base; units joined by * are phosphorothioate-linked, units joined directly phosphodiester-linked; [ ] holds rarer units or linkages, { } end groups; capitals alone tell only the bases. d = 2'-deoxy (DNA)
// IFN-α mean lookup, one value per entry

substance: (5′-TAGTCAT-3′-HEG)2-glycerol-HEG-5′-AACCTTC-3′ [Compound M-3, reference compound]
IFN-α mean / pg/mL: 102
//
substance: (5′-TCGACGT-3′-HEG)2-glycerol-HEG-5′-TCGACGT-3′ [Compound C-101]
IFN-α mean / pg/mL: 1289
//
substance: (5′-TCGACGT-HEG)2-glycerol-HEG-5′-TTGGCCAAGCTTGGCCAA (SEQ ID NO: 116) (DNA, all phosphorothioate, methylation of C not given here; Two heptamer DNA arms joined by HEG spacers and glycerol branching to the chain) [Compound C-178]
IFN-α mean / pg/mL: 7003
//
substance: (5′-TCGACGT-HEG)2-glycerol-HEG-5′-ACTTAGAGGTTCAGTAGG-3′ (SEQ ID NO: 157) (DNA, all phosphorothioate, methylation of C not given here; Two heptamer DNA arms joined by HEG spacers and glycerol branching to the chain) [Compound C-202]
IFN-α mean / pg/mL: 1542
//
substance: 5′-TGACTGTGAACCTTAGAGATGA-3′ (SEQ ID NO: 3) (dT*dG*dA*dC*dT*dG*dT*dG*dA*dA*dC*dC*dT*dT*dA*dG*dA*dG*dA*dT*dG*dA) [Compound P-7, negative control, reference compound]
IFN-α mean / pg/mL: 102
//
substance: (5′-TCGACGT-HEG)2-glycerol-HEG-5′-CCTACTGAACCTCTAAGT-3′ (SEQ ID NO: 158) (DNA, all phosphorothioate, methylation of C not given here; Two heptamer DNA arms joined by HEG spacers and glycerol branching to the chain) [Compound C-203]
IFN-α mean / pg/mL: 346

* * *

System: human PBMCs
Test: Human PBMC cytokine response assay (IFN-γ and IFN-α in cell-free medium by ELISA), with or without cPLGA
Format: cell-based
Conditions: Donor 12; 20 μg/ml, 24 h
Strand notation (5' to 3'): a small letter for the sugar, then the base; units joined by * are phosphorothioate-linked, units joined directly phosphodiester-linked; [ ] holds rarer units or linkages, { } end groups; capitals alone tell only the bases. d = 2'-deoxy (DNA)
Form field: IFN-α Donor 12 (one value per entry).
valueKind: IFN-α Donor 12

substance: 5′-TCGTCGA-3′-HEG-5′-ACGTTCG-3′-HEG-5′-AGATGAT-3′ [Compound C-8]
obsValue: 49
--
substance: 5′-TCGTCGA-3′- C3-5′-ACGTTCG-3′-C3-5′-AGATGAT-3′ [Compound C-9]
obsValue: 15
--
substance: 5′-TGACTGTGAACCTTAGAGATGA-3′ (SEQ ID NO: 3) (dT*dG*dA*dC*dT*dG*dT*dG*dA*dA*dC*dC*dT*dT*dA*dG*dA*dG*dA*dT*dG*dA) [Compound P-7, negative control, reference compound]
obsValue: 5
--
substance: 5′-TCGTCG-3′ [Compound P-2, reference compound]
obsValue: 4

* * *

Test system: human PBMCs
Experiment: Human PBMC cytokine response assay (IFN-γ and IFN-α in cell-free medium by ELISA), with or without cPLGA
Type: cell-based
Conditions: Table 10; donor 28044
# if value of IFN-α reaches 50 pg/mL, tag 1; if it stays below, tag -1

substance: 5′-TCGACGT-3′-HEG-5′-TCGACGT-3′-HEG-5′-TCGACGT-3′ [Compound C-51]
subjectOfTest: human PBMCs
groupLabel: 1

substance: 5′-TCGTCGA-3′-HEG-5′-ACGTTCG-3′-HEG-5′-AGATGAT-3′ [Compound C-8]
subjectOfTest: human PBMCs
groupLabel: -1

substance: 5′-TGCTGC-3′-HEG-5′-AGCTTGC-3′-HEG-5′-AGATGAT-3′ [Compound M-1, reference compound]
subjectOfTest: human PBMCs
groupLabel: -1

substance: 5′-TCGTCG-3′-HEG-5′-TCGTCG-3′-HEG-5′-TCGTCG-3′ [Compound C-22]
subjectOfTest: human PBMCs
groupLabel: 1

substance: 5′-TCGTTTT-3′-HEG-5′-TCGTTTT-3′-HEG-5′-TCGTTTT-3′ [Compound C-41]
subjectOfTest: human PBMCs
groupLabel: -1

substance: 5′-TCGTCGA-3′-HEG-5′-TCGTCGA-3′-HEG-5′-TCGTCGA-3′ [Compound C-21]
subjectOfTest: human PBMCs
groupLabel: 1

substance: 5′-TCGAACG-3′-HEG-5′-TCGAACG-3′-HEG-5′-TCGAACG-3′ [Compound C-50]
subjectOfTest: human PBMCs
groupLabel: 1

substance: 5′-TCGTCGA-3′-HEG-5′-TCGTCGA-3′ [Compound C-39]
subjectOfTest: human PBMCs
groupLabel: -1

* * *

IFN-α mean values for the substances below.
Test system: human PBMCs
Experiment: Human PBMC cytokine response assay (IFN-γ and IFN-α in cell-free medium by ELISA), with or without cPLGA
Format: cell-based
Conditions: mean of Donors 9-12; 20 μg/ml, 24 h
Strand notation (5' to 3'): a small letter for the sugar, then the base; units joined by * are phosphorothioate-linked, units joined directly phosphodiester-linked; [ ] holds rarer units or linkages, { } end groups; capitals alone tell only the bases. d = 2'-deoxy (DNA)

substance: 5′-TCGTCGA-3′-HEG-5′-ACGTTCG-3′-HEG-5′-AGATGAT-3′ [Compound C-8]
subjectOfTest: human PBMCs
IFN-α mean: 39
--
substance: 5′-TCGTCGA-3′- C3-5′-ACGTTCG-3′-C3-5′-AGATGAT-3′ [Compound C-9]
subjectOfTest: human PBMCs
IFN-α mean: 8
--
substance: 5′-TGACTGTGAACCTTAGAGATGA-3′ (SEQ ID NO: 3) (dT*dG*dA*dC*dT*dG*dT*dG*dA*dA*dC*dC*dT*dT*dA*dG*dA*dG*dA*dT*dG*dA) [Compound P-7, negative control, reference compound]
subjectOfTest: human PBMCs
IFN-α mean: 2
--
substance: 5′-TCGTCG-3′ [Compound P-2, reference compound]
subjectOfTest: human PBMCs
IFN-α mean: 2
